Measured values drawn from patent US10196363B2 for this set.

Target: human RORγ (Homo sapiens, UniProt P51449)
Construct: human RORγ, from Ser253 to Lys518; expressed in transfected cells; host or cells: CHO cells (Chinese hamster ovary), transient co-transfection with pG5-Luc
Sequence (P51449 253-518): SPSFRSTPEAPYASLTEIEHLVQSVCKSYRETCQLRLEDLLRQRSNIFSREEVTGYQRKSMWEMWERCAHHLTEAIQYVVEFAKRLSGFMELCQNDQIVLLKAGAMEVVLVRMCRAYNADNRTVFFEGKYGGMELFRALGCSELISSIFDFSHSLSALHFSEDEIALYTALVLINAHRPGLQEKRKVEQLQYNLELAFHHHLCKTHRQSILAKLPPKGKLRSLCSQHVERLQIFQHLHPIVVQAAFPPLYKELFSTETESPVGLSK
Assay: In vitro assay of inhibitory effect against RORγ transcriptional activity (GAL4-hRORγ LBD luciferase reporter gene assay in CHO cells)
Format: cell-based
Conditions: GAL4-hRORγ LBD luciferase reporter, CHO cells; read-out: LUC EC50 hRORγ
property_label: pEC50
The value called pEC50 is obtained by taking minus log10 of the concentration in mol/L.

Ask: Any idea what its pEC50 is? The molecule is CC(C)CCSc1ccc([C@]2(C)NC(=O)N(CCC(=O)O)C=C2C(C)C)cc1Cl
Result: 6.42

###

Biological target: mouse RORγ (Mus musculus, UniProt P51450)
Construct: mouse RORγ, from Ile251 to Lys516; expressed in transfected cells; host or cells: CHO cells (Chinese hamster ovary), transient co-transfection with pG5-Luc
Sequence (P51450 251-516): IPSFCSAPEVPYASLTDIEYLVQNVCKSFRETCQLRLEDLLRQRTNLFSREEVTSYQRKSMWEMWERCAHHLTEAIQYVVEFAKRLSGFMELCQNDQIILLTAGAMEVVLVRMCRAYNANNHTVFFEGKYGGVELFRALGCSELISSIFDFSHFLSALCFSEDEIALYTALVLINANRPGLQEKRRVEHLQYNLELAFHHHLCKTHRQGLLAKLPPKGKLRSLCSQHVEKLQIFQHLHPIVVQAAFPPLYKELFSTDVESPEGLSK
Assay: In vitro assay of inhibitory effect against RORγ transcriptional activity (GAL4-mRORγ LBD luciferase reporter gene assay in CHO cells)
Format: cell-based
Settings: GAL4-mRORγ LBD luciferase reporter, CHO cells; read-out: LUC EC50 mRORγ
Each entry below carries its recorded pEC50.
pEC50 is a log-scale quantity: -log10 of the concentration expressed in molar.

Ask: Reported pEC50 for CC(C)C1=CN(C2CC3(CC(C(=O)O)C3)C2)C(=O)N[C@@]1(C)c1ccc(CCC(C)(C)C)c(Cl)c1 (single isomer, unassigned) [Example 233] : what is it?
Result: 7.14

Ask: So what does the record say about pEC50 for Cc1cc(N2C=C(C(C)C)[C@](C)(c3ccc(CCC(C)(C)C)c(Cl)c3)NC2=O)ccc1C(=O)O [Example 266] ?
Result: 7.77

Ask: Suppose we examine the compound CC(C)C1=CN(c2ccc(C(=O)O)c(C(F)(F)F)c2)C(=O)N[C@@]1(C)c1ccc(CCC(C)(C)C)c(Cl)c1 [Example 283] ; what pEC50 value has been reported?
Result: 7.55

Ask: Report pEC50 for CC(C)(C)CCc1ccc([C@]2(C)NC(=O)N(c3ccc(C(=O)O)cc3)C=C2C2CC(F)(F)C2)cc1Cl [Example 252] please.
Result: 7.55

###

Target: human RORγ (Homo sapiens)
Construct: human RORγ, from Ser253 to Lys518; expressed in transfected cells; host or cells: CHO cells (Chinese hamster ovary), transient co-transfection with pG5-Luc
Test: In vitro assay of inhibitory effect against RORγ transcriptional activity (GAL4-hRORγ LBD luciferase reporter gene assay in CHO cells)
Format: cell-based
Details: GAL4-hRORγ LBD luciferase reporter, CHO cells; read-out: LUC EC50 hRORγ
property_label: pEC50
Please express pEC50 as -log10 of the molar concentration.

// known answers, use as guide
CC(C)(C)C1=CN(CCC(=O)O)C(=O)N[C@@]1(C)c1ccc(CC2CCCCC2)c(Cl)c1 ... 7.77
C=C(C)C1=CN(CCC(=O)O)C(=O)N[C@@]1(C)c1ccc(CCC(C)(C)C)c(Cl)c1 ... 7.05
CC(C)(C)CCc1ccc([C@]2(C)NC(=O)N(CCC(=O)O)C=C2CCS(C)(=O)=O)cc1Cl ... 5.85

Ask: What does the data say about its pEC50? Entry: CC(C)C1=CN(c2ccc(C(=O)O)cc2)C(=O)N[C@@]1(C)c1ccc(CCC(C)(C)C(F)(F)F)c(Cl)c1
Result: 8.05

Ask: Give the measured pEC50 of CC(C)C1=CN(CCC(=O)O)C(=O)N[C@@]1(C)c1ccc(C=C2CCC(C)(C)CC2)c(Cl)c1 .
Result: 5.87

Ask: Using the record for CC(C)(C)CCc1ccc([C@]2(C)NC(=O)N(CCC(=O)O)C=C2c2ccccc2)cc1Cl , report its pEC50.
Result: 7.43

Ask: # input compound: CC(C)C1=CN(CCC(=O)O)C(=O)N[C@@]1(C)c1ccc(SC2CCCC2)c(Cl)c1 ; wanted: its pEC50
Result: 6.46

Ask: Given the compound CC(C)(C)CCc1ccc([C@]2(C)NC(=O)N(CCC(=O)O)C=C2C2CC(C)(C)OC(C)(C)C2)cc1Cl , what is its reported pEC50?
Result: 5.56

Ask: # lookup: pEC50 of COCCC1=CN(c2ccc(C(=O)O)cn2)C(=O)N[C@@]1(C)c1ccc(C2=CCC(C)(C)CC2)c(Cl)c1
Result: 7.66

Ask: I have this compound here, COCCC(C)(C)CC1=CN(c2ccc(C(=O)O)cc2)C(=O)N[C@@]1(C)c1ccc(CCC(C)(C)C)c(Cl)c1 , and I need its recorded pEC50.
Result: 7.29

Ask: Param item = COCCC1=CN(c2ccc(C(=O)O)cc2)C(=O)N[C@@]1(C)c1ccc(C2=CCC(C)(C)CC2)c(Cl)c1 ; retrieve measured pEC50.
Result: 7.92

Ask: Look up pEC50: CC(C)CCOc1ccc([C@]2(C)NC(=O)N(C34CC(C(=O)O)(C3)C4)C=C2C2CC(F)(F)C2)cc1Cl
Result: 7.20

Ask: Recorded pEC50 for C[C@@]1(c2ccc(OCCC3CCC3)c(Cl)c2)NC(=O)N(C23CC(C(=O)O)(C2)C3)C=C1C1CC(F)(F)C1 , please?
Result: 7.47

Ask: Which pEC50 is reported for this compound? CC(C)CCOc1c(F)cc([C@]2(C)NC(=O)N(c3ccc(C(=O)O)cc3)C=C2C(C)C)cc1Cl
Result: 7.77

Ask: Quick one: pEC50 for COCCC1=CN(c2ccc(C(=O)O)c(OC)c2)C(=O)N[C@@]1(C)c1ccc(CC2CCCCC2)c(Cl)c1 ?
Result: 7.66
